- System: B16
- Assay Details: Inhibitory activity against growth of B16 mouse melanoma cell line was determined by MTT assay
- Format: functional, cell-based
Please go through the items and note down their IC50.

Lookup: Give its IC50 value. Item: CC(C)[C@@H]1NC(=O)[C@@H]2CSCSC[C@H](NC(=O)[C@H](C)NC(=O)[C@H](NC(=O)c3cnc4ccccc4n3)COC1=O)C(=O)N[C@@H](C(C)C)C(=O)OC[C@@H](NC(=O)c1cnc3ccccc3n1)C(=O)N[C@@H](C)C(=O)N2
Found: > 20 µg/mL

Lookup: Param item = CC(C)[C@H]1C(=O)OC[C@@H](NC(=O)c2cnc3ccccc3n2)C(=O)N[C@@H](C)C(=O)N(C)[C@H]2CS(=O)(=O)CS(=O)(=O)C[C@@H](C(=O)N1C)N(C)C(=O)[C@H](C)NC(=O)[C@H](NC(=O)c1cnc3ccccc3n1)COC(=O)[C@H](C(C)C)N(C)C2=O ; retrieve measured IC50.
Found: > 20 µg/mL

Lookup: Quick one: IC50 of CC(C)[C@@H]1NC(=O)[C@@H]2CS(=O)(=O)CS(=O)(=O)C[C@H](NC(=O)[C@H](C)NC(=O)[C@H](NC(=O)c3cnc4ccccc4n3)COC1=O)C(=O)N[C@@H](C(C)C)C(=O)OC[C@@H](NC(=O)c1cnc3ccccc3n1)C(=O)N[C@@H](C)C(=O)N2 ?
Found: > 20 µg/mL

Lookup: Fill blank: measured IC50 of the compound CC(C)[C@H]1C(=O)OC[C@@H](NC(=O)c2cnc3ccccc3n2)C(=O)N[C@@H](C)C(=O)N(C)[C@H]2CSCSC[C@@H](C(=O)N1C)N(C)C(=O)[C@H](C)NC(=O)[C@H](NC(=O)c1cnc3ccccc3n1)COC(=O)[C@H](C(C)C)N(C)C2=O is ____.
Found: 1.4 µg/mL

Lookup: Any idea what IC50 was measured for CS[C@H]1SC[C@H]2C(=O)N(C)[C@@H](C(C)C)C(=O)OC[C@@H](NC(=O)c3cnc4ccccc4n3)C(=O)N[C@@H](C)C(=O)N(C)[C@@H]1C(=O)N(C)[C@@H](C(C)C)C(=O)OC[C@@H](NC(=O)c1cnc3ccccc3n1)C(=O)N[C@@H](C)C(=O)N2C ?
Found: 0.4 µg/mL

Lookup: // IC50 lookup, key: CC(C)[C@H]1C(=O)OC[C@@H](NC(=O)c2cnc3ccccc3n2)C(=O)N[C@@H](C)C(=O)N(C)[C@H]2CSC[S+]([O-])C[C@@H](C(=O)N1C)N(C)C(=O)[C@H](C)NC(=O)[C@H](NC(=O)c1cnc3ccccc3n1)COC(=O)[C@H](C(C)C)N(C)C2=O (some centres not stated)
Found: > 20 µg/mL

Lookup: State the recorded IC50 for this entry: CC(C)[C@H]1C(=O)OC[C@@H](NC(=O)c2cnc3ccccc3n2)C(=O)N[C@@H](C)C(=O)N(C)[C@H]2C[S+]([O-])C[S+]([O-])C[C@@H](C(=O)N1C)N(C)C(=O)[C@H](C)NC(=O)[C@H](NC(=O)c1cnc3ccccc3n1)COC(=O)[C@H](C(C)C)N(C)C2=O (some centres not stated)
Found: > 20 µg/mL
